Tested on: SW480
Method Description: drug sensitivity score (DSS, integrated dose-response area); higher = more sensitive (stronger viability reduction); extreme values may be limits of the assay
Conditions Used: shRNA: SND1 shRNA1 (SND1 silenced)
Measured drug sensitivity score values are reported for all entries that follow.
Kindly provide the numeric value in DSS only, without the unit symbol.

// worked examples, drug sensitivity score included
Molecule	drug sensitivity score / DSS
CCN(CC)CCN(Cc1ccc(-c2ccc(C(F)(F)F)cc2)cc1)C(=O)Cn1c(SCc2ccc(F)cc2)nc(=O)c2c1CCC2 [Darapladib]	0.1
Nc1ncn([C@H]2C[C@H](O)[C@@H](CO)O2)c(=O)n1 [Decitabine]	11
CN(Cc1cnc2nc(N)nc(N)c2n1)c1ccc(C(=O)N[C@@H](CCC(=O)O)C(=O)O)cc1 [Methotrexate]	11.7
Cc1csc(-c2nnc(Nc3ccc(Oc4ncccc4-c4ccnc(N)n4)cc3)c3ccccc23)c1 [AMG-900]	5
CCc1c(C(=O)C(N)=O)c2c(OCC(=O)O)cccc2n1Cc1ccccc1 [Varespladib]	0

IN: Could you please provide reported drug sensitivity score for CC[C@]1(O)C[C@H]2CN(CCc3c([nH]c4ccccc34)[C@@](C(=O)OC)(c3cc4c(cc3OC)N(C=O)[C@H]3[C@@](O)(C(=O)OC)[C@H](OC(C)=O)[C@]5(CC)C=CCN6CC[C@]43[C@@H]65)C2)C1 [Vincristine] ? Thanks!
OUT: 10.1

IN: Could you please provide reported drug sensitivity score for CN(C)C(=N)NC(=N)N [Metformin] ? Thanks!
OUT: 0
